# ASSAY_TARGET: Protein cereblon/Leucine-rich repeat serine/threonine-protein kinase 2 (Mus musculus, UniProt Q5S006+Q8C7D2)
# ASSAY_INFO: Protac activity at CRBN/LRRK2 in mouse MEF cells assessed as induction of LRRK2 degradation by measuring reduction in LRRK2 phosphorylation at S935 residue by Invitrogen Adapta assay
// assign condition met if IC50 falls strictly below 2 nM, else condition not met (ties count as condition not met)

| MOLECULE | LABEL |
| --- | --- |
| CNc1nc(Nc2ccc(C(=O)N3CCN(C(=O)CCOCCOCCOCCOCCNc4cccc5c4C(=O)N(C4CCC(=O)NC4=O)C5=O)CC3)cc2OC)ncc1C(F)(F)F (stereo not drawn) | condition not met |
| CC1(Oc2ccc3[nH]nc(-c4cc(N5CCN(C(=O)CCOCCOCCOCCOCCNc6cccc7c6C(=O)N(C6CCC(=O)NC6=O)C7)CC5)ncn4)c3c2)CC1 (stereo not drawn) | condition not met |
| CC1(Oc2ccc3[nH]nc(-c4cc(N5CCN(C(=O)CCOCCNc6cccc7c6C(=O)N(C6CCC(=O)NC6=O)C7)CC5)ncn4)c3c2)CC1 (stereo not drawn) | condition not met |
| CC1(Oc2ccc3[nH]nc(-c4cc(N5CCN(C(=O)CCOCCOCCNc6cccc7c6C(=O)N(C6CCC(=O)NC6=O)C7=O)CC5)ncn4)c3c2)CC1 (stereo not drawn) | condition met |
| CC1(Oc2ccc3[nH]nc(-c4cc(N5CCN(C(=O)CCOCCNc6cccc7c6C(=O)N(C6CCC(=O)NC6=O)C7=O)CC5)ncn4)c3c2)CC1 (stereo not drawn) | condition met |
| CC1(Oc2ccc3[nH]nc(-c4cc(N5CCN(C(=O)CCOCCOCCNc6cccc7c6C(=O)N(C6CCC(=O)NC6=O)C7)CC5)ncn4)c3c2)CC1 (stereo not drawn) | condition not met |
| CC1(Oc2ccc3[nH]nc(-c4cc(N5CCN(C(=O)CCOCCOCCOCCOCCNc6cccc7c6C(=O)N(C6CCC(=O)NC6=O)C7=O)CC5)ncn4)c3c2)CC1 (stereo not drawn) | condition met |

---

# ASSAY_TARGET: Protein cereblon/Leucine-rich repeat serine/threonine-protein kinase 2 (Mus musculus, UniProt Q5S006+Q8C7D2, G2019S)
# ASSAY_INFO: Protac activity at CRBN/LRRK2 G2019S homozygous knock-in mutant in mouse MEF cells assessed as induction of LRRK2 degradation by measuring reduction in LRRK2 phosphorylation at S935 residue by Invitrogen Adapta assay
// reported IC50 per item
PROPERTY_NAME: IC50

| MOLECULE | PROPERTY_NAME | MEASURED |
| --- | --- | --- |
| CC1(Oc2ccc3[nH]nc(-c4cc(N5CCN(C(=O)CCOCCOCCNc6cccc7c6C(=O)N(C6CCC(=O)NC6=O)C7=O)CC5)ncn4)c3c2)CC1 (stereo not drawn) | IC50 | 1.13 nM |
| CC1(Oc2ccc3[nH]nc(-c4cc(N5CCN(C(=O)CCOCCOCCOCCOCCNc6cccc7c6C(=O)N(C6CCC(=O)NC6=O)C7)CC5)ncn4)c3c2)CC1 (stereo not drawn) | IC50 | 3.16 nM |
| CC1(Oc2ccc3[nH]nc(-c4cc(N5CCN(C(=O)CCOCCOCCNc6cccc7c6C(=O)N(C6CCC(=O)NC6=O)C7)CC5)ncn4)c3c2)CC1 (stereo not drawn) | IC50 | 2.24 nM |

Reference source for all entries: ChEMBL document CHEMBL4725454
